Molecular target: HLA-DR3
Assay: Variant to Test A: peptide selectivity binding assay, HLA-DR3
Parameters: species or system Human
Settings: did not bind significantly
pIC50: −log10 of the molar value.
recorded metric: pIC50

Form: substance = Phv-Ala-Arg-Ala-IIb-Ala-Arg-Ala-Papa-NH2 [Example 23] ; pIC50 = < 4.00
